Entry source: PubChem BioAssay (NCI)

System: ACHN renal
Test: NCI tumour cell line growth inhibition, 48 h
ATTRIBUTE_MEASURED: log10 TGI (log10 of the value in µM)
A difference of one corresponds to tenfold TGI; all values are log10 with TGI in µM.

INSERT INTO results (molecule, attribute_measured, number) VALUES
  ('COc1cc(OC)c(C(=O)/C=C/c2cccc(C#N)c2)c(OC)c1', 'log10 TGI', 0.65),
  ('O=C(c1cc2c(c3ccccc13)NC1(CCCCC1)N=C2C(F)(F)F)C(F)(F)F', 'log10 TGI', 1.14),
  ('Cc1ccc(-c2nc3nc(-c4ccccc4)nc(N4CCNCC4)c3o2)cc1', 'log10 TGI', 0.03),
  ('Cn1cc(-c2csc(-c3cn(CCCN4CCCCC4)c4ccccc34)n2)c2cccnc21', 'log10 TGI', 0.48);

GET /values?readout=log10 TGI&item= CCOP(=O)(OCC)OC1c2[nH]cc(C(=O)OCc3ccccc3)c2-c2cc(C(=O)OC)[nH]c2C1OC (stereo unspecified)
1.48

GET /values?readout=log10 TGI&item= COc1ccc(/C=C(\C(=O)NCc2cccnc2)S(=O)(=O)c2ccccc2)cc1OC
1.06

GET /values?readout=log10 TGI&item= O=C(NNC(=O)c1csc(NC(=S)NC2CCCCC2)n1)c1ccccc1
1.64

GET /values?readout=log10 TGI&item= CCC[CH2][Sn]1([CH2]CCC)[O]C2C(CO)OC(n3ccc(N)nc3=O)C2[O]1 (stereo unspecified)
0.43

GET /values?readout=log10 TGI&item= c1ccc2[nH]c(-c3cc(-c4ccc5c(c4)OCO5)n[nH]3)nc2c1
1.28
